assayText: anti-His antibody binders, primary screen, artefact control for SMM control protein annotation, biochemical, small-molecule microarray, 635 nm fluorescence (AID 1128);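 also: score merges feature fluorescence with signal-to-noise for each printed compound spot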
statedConditions: anti-His Alexa647 antibody binding, higher = more signal

>  <compound>
COC(=O)[C@@]1(Cc2ccc(OC)cc2)[C@H]2c3cc(C(=O)N4CCCC4)n(Cc4cc(F)c(F)c(F)c4)c3C[C@H]2CN1C(=O)c1ccccc1

>  <composite z-score>
2.21

$$$$
>  <compound>
CC(C)CON=C1C[C@@H](O)[C@@H](O)[C@@H]2[C@@H]3C(=O)N(C[C@@H]4CCCO4)C(=O)[C@@H]3CC[C@H]12

>  <composite z-score>
0.361

$$$$
>  <compound>
COc1ccc(OC[C@H]2Cc3c(-c4ccccc4)nc4c(c3CO2)CN(CCOc2ccccc2)CC4)cc1

>  <composite z-score>
1.78

$$$$
>  <compound>
CC(C)NC(=O)[C@@]1(C)c2ccccc2C(=O)N(Cc2cc(F)cc(C(F)(F)F)c2)[C@H]1c1ccc(CO)cc1

>  <composite z-score>
0.886

$$$$
>  <compound>
COC(=O)[C@H](C)NC(=O)CCC1CC(OC(=O)NCCc2ccc(F)cc2)CC2(CCCC(COC(=O)NCC(c3ccccc3)c3ccccc3)O2)O1 (some centres not stated)

>  <composite z-score>
0.862

$$$$
>  <compound>
C=CCC(OC(C)=O)[C@@H]1[C@@H](N(Cc2cc3ccccc3o2)C(=O)Cc2ccc(F)cc2)c2cc(OCCCO)ccc2N1C(=O)Cc1ccc(OC)cc1 (some centres not stated)

>  <composite z-score>
-0.419

$$$$
>  <compound>
C[C@H]1Cc2c(-c3ccccc3)nc3c(c2CO1)CN(CCOc1ccccc1)CC3

>  <composite z-score>
1.08

$$$$
